Where these numbers come from: PubChem BioAssay (NCI)

System: OVCAR-3 ovarian
assay: NCI tumour cell line growth inhibition, 48 h; in the data active = GI50 below about 0.43 µM; inactive = the rest
Form entry, call: pick from yes (1) (active), no (0) (inactive)

# smiles, label-value
data = [
    ("COc1cccc(NC(=O)c2sc3nc4c(cc3c2N)C(=O)CCC4)c1", "yes (1)"),
    ("O=C(Nc1ccc(-n2ccc3c(NC(=O)c4ccccc4)ncnc32)cc1)Nc1cccc(Cl)c1Cl", "no (0)"),
    ("O=C(/C=C/c1ccccc1)n1c(-c2ccc(Cl)cc2)nc2ccccc21", "no (0)"),
    ("CN1C(=O)N[C@H]2[C@@H]3NC(=O)c4ccc(Br)n4[C@@H]3C[C@]21O", "yes (1)"),
]

q: How was O=C1/C(=C\c2ccccn2)c2ccccc2N1c1c(Cl)cccc1Cl classified in this test?
a: no (0)

q: How was O=Cc1ccc(-c2ccc(-c3nc4ccccc4o3)cc2)o1 classified in this test?
a: no (0)

* * *

Catalogue of compounds with associated TGI
Tested on: OVCAR-4 ovarian
assay: NCI tumour cell line growth inhibition, 48 h
Unit µM implied. Number only.

Worked set:
# compound, u, TGI
data = [
    ("COc1cc(Nc2nc3ccccc3cc2C(=O)Nc2ccc(F)c(F)c2)cc(OC)c1OC", "µM", 8.56),
    ("O=C1/C(=C\\c2ccccn2)c2ccccc2N1c1c(Cl)cccc1Cl", "µM", 26.8),
    ("CCOC(=O)C(Cc1cccn1C(=O)OC(C)(C)C)[N+](=O)[O-] (stereo unspecified)", "µM", 89),
]

q: Give the reported TGI for this compound. COC(=O)c1cc(O)c2c(c1C(=O)OC)C[C@H]1[C@@H]3CC=C4C[C@@H](O)CC[C@]4(C)[C@H]3CC[C@]21C
a: 15.8

q: Give the reported TGI for this compound. O=C(Nc1cccc(O)c1)C(=O)C(C(=O)c1ccc(Cl)c(Cl)c1)C1OC(=O)c2ccccc21 (stereo unspecified)
a: 36.7

* * *

Tested on: SK-OV-3 ovarian
assay: NCI tumour cell line growth inhibition, 48 h
value-kind: log10(TGI) (log10 of the value in µM)
Reminder: these figures are log10 of reported TGI, in µM before transformation.

q: Give the reported log10(TGI) for this molecule. CCOC(=O)c1sc2[n+](c1C)C(=O)/C(=C/c1ccc([N+](=O)[O-])cc1)S2
a: 1.81

q: Give the reported log10(TGI) for this molecule. Oc1ccc(Cl)cc1CN1CCN(Cc2cc(Cl)ccc2O)C1
a: 1.12

q: Give the reported log10(TGI) for this molecule. COc1ccc2cc(CN3CCC(C4CCNCC4)CC3)ccc2c1
a: 1.37

q: Give the reported log10(TGI) for this molecule. CCN(CC)CCCNC(=O)c1c2c(n3ccccc13)C(=O)c1ncccc1C2=O
a: 0.75

q: Give the reported log10(TGI) for this molecule. O=C1C=CC(=O)c2cc(Sc3ccccc3)c(=O)ccc21
a: 1.74

q: Give the reported log10(TGI) for this molecule. CC(=O)[CH-]C(=O)c1ccccc1.CC(=O)[CH-]C(=O)c1ccccc1.CCOCC[O-].CCOCC[O-].[Ti+4]
a: 1.87

q: Give the reported log10(TGI) for this molecule. CCCCCCCCCCCCCCCCOC[C@@H](COC(c1ccccc1)(c1ccccc1)c1ccccc1)O[P+](=S)OC (stereo not given in full)
a: 1.30

q: Give the reported log10(TGI) for this molecule. O=C(Nc1cccc(O)c1)C(=O)C(C(=O)c1ccc(Cl)c(Cl)c1)C1OC(=O)c2ccccc21 (stereo not given)
a: 1.71
